Origin of the recorded values: patent US20240415918A1

Molecular target: CCK-B receptors (CHO-CCK) (Homo sapiens, UniProt P32239)
Construct: expressed in transfected cells; host or cells: CHO (CHO-CCK model cells)
Sequence (P32239 whole entry): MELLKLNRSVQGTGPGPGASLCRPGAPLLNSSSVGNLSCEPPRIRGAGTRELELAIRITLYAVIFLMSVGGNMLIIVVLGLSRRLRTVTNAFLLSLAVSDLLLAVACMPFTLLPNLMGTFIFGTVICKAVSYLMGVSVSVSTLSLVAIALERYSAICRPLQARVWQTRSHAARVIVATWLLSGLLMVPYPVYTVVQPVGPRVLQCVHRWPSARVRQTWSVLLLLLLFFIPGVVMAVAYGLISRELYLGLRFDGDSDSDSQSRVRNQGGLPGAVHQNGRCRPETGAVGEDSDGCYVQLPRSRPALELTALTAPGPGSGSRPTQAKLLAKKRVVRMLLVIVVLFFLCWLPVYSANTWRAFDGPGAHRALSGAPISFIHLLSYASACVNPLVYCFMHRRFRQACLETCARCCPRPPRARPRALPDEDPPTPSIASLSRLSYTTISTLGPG
Test: Calcium flux (Fluo-8) agonist test on CHO-CCK model cells
Format: cell-based
Details: compound at 10 μM; percentage of signal of 20 nM CCK8 alone
RECORDED METRIC: Agonistic Activity (%) at 10 μM

MOLECULE	U	Agonistic Activity (%) at 10 μM
COC(=O)C[C@H](NC(=O)[C@H](CCS(C)(=O)=O)NC(=O)[C@H](N)Cc1c[nH]c2ccccc12)C(=O)N[C@@H](Cc1ccc(C#N)cc1)C(N)=O [HT-134, D-Trp-Met(O2)-Asp(Ome)-Phe(4-CN)-NH2]	%	11.25
COC(=O)C[C@H](NC(=O)[C@H](CC[S+](C)[O-])NC(=O)[C@H](N)Cc1c[nH]c2ccccc12)C(=O)N[C@@H](Cc1cccc(Br)c1)C(N)=O (stereo partly drawn) [HT-114, D-Trp-Met(O)-Asp(Ome)-Phe(3-Br)-NH2]	%	−8.48

(1) C[S+]([O-])CC[C@H](NC(=O)[C@H](N)Cc1c[nH]c2ccccc12)C(=O)N[C@@H](CC(=O)O)C(=O)N[C@@H](Cc1ccccc1[N+](=O)[O-])C(N)=O (stereo partly drawn) [HT-41, D-Trp-Met(O)-Asp-Phe(2-NO2)-NH2]
(2) COC(=O)C[C@H](NC(=O)[C@H](CCSC)NC(=O)[C@H](N)Cc1c[nH]c2ccccc12)C(=O)N[C@@H](Cc1ccc(I)cc1)C(N)=O [HT-88, D-Trp-Met-Asp(Ome)-Phe(4-I)-NH2]
(3) CS(=O)(=O)CC[C@H](NC(=O)[C@H](N)Cc1c[nH]c2ccccc12)C(=O)N[C@@H](CC(=O)O)C(=O)N[C@@H](Cc1cc(F)cc(F)c1)C(N)=O [HT-73, D-Trp-Met(O2)-Asp-Phe(3,5-DIF)-NH2]
Exercise: # rank_down: sort by Agonistic Activity (%) at 10 μM, max first Ranked list of labels, please, in the requested order.
Solution: 3, 2, 1
(3: 55.41%, 2: −4.64%, 1: −11.17%)

----------
Target: CCK-B receptors (CHO-CCK) (Homo sapiens)
Construct: expressed in transfected cells; host or cells: CHO (CHO-CCK model cells)
Test: Calcium flux (Fluo-8) agonist test on CHO-CCK model cells
Format: cell-based
Details: CHO-CCK cells, compound alone; 100% = 20 nM CCK8
RECORDED METRIC: EC50 (µM)

Some solved cases for reference:
MOLECULE	RECORDED METRIC	U	MEAS VALUE
C[S+]([O-])CC[C@H](NC(=O)[C@H](N)Cc1c[nH]c2ccccc12)C(=O)N[C@@H](CC(=O)O)C(=O)N[C@@H](Cc1cccc(I)c1)C(N)=O (some centres unmarked)	EC50	µM	4.38
CS(=O)(=O)CC[C@H](NC(=O)[C@H](N)Cc1c[nH]c2ccccc12)C(=O)N[C@@H](CC(=O)O)C(=O)N[C@@H](Cc1ccc(F)cc1)C(N)=O	EC50	µM	11.4
C[S+]([O-])CC[C@H](NC(=O)[C@H](N)Cc1c[nH]c2ccccc12)C(=O)N[C@@H](CC(=O)O)C(=O)N[C@@H](Cc1cc(Cl)cc(Cl)c1)C(N)=O (some centres unmarked)	EC50	µM	1.65

(a) CS(=O)(=O)CC[C@H](NC(=O)[C@H](N)Cc1c[nH]c2ccccc12)C(=O)N[C@@H](CC(=O)O)C(=O)N[C@@H](Cc1cc(Cl)cc(Cl)c1)C(N)=O
(b) CSCC[C@H](NC(=O)[C@H](N)Cc1c[nH]c2ccccc12)C(=O)N[C@@H](CC(=O)O)C(=O)N[C@@H](Cc1ccccc1[N+](=O)[O-])C(N)=O
Exercise: From the items above, decide which of a and b has the lower EC50 reading. Answer by quoting the chosen item's label.
Solution: b
(b: 0.206 µM, a: 1.51 µM)
